Assign pIC50 to each entry below.
Molecular target: mGlyT-1b (Mus musculus)
Sequence (P28571 1-651 isoform P28571-2): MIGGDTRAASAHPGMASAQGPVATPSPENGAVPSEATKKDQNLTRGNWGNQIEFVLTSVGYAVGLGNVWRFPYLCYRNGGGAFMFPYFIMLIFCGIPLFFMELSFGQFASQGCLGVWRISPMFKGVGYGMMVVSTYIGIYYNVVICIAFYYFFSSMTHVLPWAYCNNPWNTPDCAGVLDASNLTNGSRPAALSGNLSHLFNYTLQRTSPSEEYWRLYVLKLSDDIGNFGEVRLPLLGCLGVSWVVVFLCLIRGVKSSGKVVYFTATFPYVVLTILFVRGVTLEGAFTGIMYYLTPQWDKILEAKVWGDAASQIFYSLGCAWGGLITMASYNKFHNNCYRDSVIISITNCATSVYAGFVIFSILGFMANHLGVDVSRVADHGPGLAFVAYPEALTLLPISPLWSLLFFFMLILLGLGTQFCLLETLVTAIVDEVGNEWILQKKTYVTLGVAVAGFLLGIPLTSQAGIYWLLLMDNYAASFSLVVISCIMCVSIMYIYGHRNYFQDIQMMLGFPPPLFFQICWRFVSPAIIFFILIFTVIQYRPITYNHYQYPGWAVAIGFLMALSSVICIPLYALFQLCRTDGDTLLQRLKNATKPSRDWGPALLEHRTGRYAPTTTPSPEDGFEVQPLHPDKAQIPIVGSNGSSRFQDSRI
Test: Glycine Uptake Inhibition Assay (mGlyT-1b)
Scale: negative log10 of molar concentration, which is what pIC50 denotes.

**Q:** Which measured pIC50 value corresponds to COc1ccc(C(=O)N(CC(=O)Nc2ccc(Cl)c(Cl)c2)C2CCCC2)cc1 ?
**A:** 6.45

**Q:** Which measured pIC50 value corresponds to COc1ccc(C(=O)N(CC(=O)Nc2ccc(C)c(Cl)c2)c2ccccc2)cc1 ?
**A:** 6.43

**Q:** Which measured pIC50 value corresponds to O=C(CN(Cc1ccccc1Cl)C(=O)c1ccc(F)cc1)Nc1ccc(F)c(Cl)c1 ?
**A:** 6.80

**Q:** Which measured pIC50 value corresponds to O=C(CN(C(=O)c1ccccc1F)c1ccccc1)Nc1ccc(Cl)c(Cl)c1 ?
**A:** 6.54

**Q:** Which measured pIC50 value corresponds to O=C(CN(Cc1ccccc1Cl)C(=O)c1ccc(OC(F)(F)F)cc1)Nc1cccc(F)c1 ?
**A:** 6.97

**Q:** Which measured pIC50 value corresponds to O=C(CN(Cc1ccccc1F)C(=O)c1ccc(N2CCOCC2)nc1)Nc1cccc(Cl)c1 ?
**A:** 6.45

**Q:** Which measured pIC50 value corresponds to O=C(CN(Cc1cc(F)ccc1F)C(=O)c1ccc(Cl)cc1)Nc1cccc(Cl)c1 ?
**A:** 6.78

**Q:** Which measured pIC50 value corresponds to COc1ccc(C(=O)N(CC(=O)Nc2ccc(Cl)c(Cl)c2)c2ccccc2)cc1 ?
**A:** 6.56
